Measured values drawn from PubChem BioAssay (NCI) for this set.

# assay notes: NCI Yeast Anticancer Drug Screen. Data for the cln2 rad14 strain (AID 165);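 further: 0% = growth equal to vehicle treated cultures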
# experimental parameters: S. cerevisiae cln2 rad14 strain, at 50.0 µM, stronger effect = higher value
Compounds without any hit were thinned out: in the full panel of roughly 79,000, 15% have a hit.
reported metric: growth inhibition (%)
Number in %, nothing else.

C[Si](C)(CCCOCC1CO1)O[Si](C)(C)CCCOCC1CO1 (configuration not stated) ... 17.6
O=C(O)C1CC1(C(=O)O)C(=O)O (configuration not stated) ... 3.45
CC(C)OC(=O)N1CCCC1 ... -20
C=Cc1ccccc1N=NC(C(=O)OC)=P(c1ccccc1)(c1ccccc1)c1ccccc1 ... -6.75
N#C/C=C\c1ccc(Cl)cc1 ... -10.8

Prompt: Bench note: what growth inhibition did C=C(C)C1Cc2c(cc(O)c3c(=O)c4c(oc23)C(O)Oc2cc(OC)c(OC)cc2-4)O1 (configuration not stated) show?
Completion: -3.85

Prompt: Entry to check: COc1ccc(NC(C)c2ccncc2)cc1 (configuration not stated)
Completion: -9.95

Prompt: Entry to check: "Cc1nnc(CC#N)n1NC(=O)CC#N"
Completion: -18

Prompt: Entry to check: "COC(Cc1cc(C(O)(c2ccc(C(C)(C)C)cc2)c2cc(CC(OC)(c3cc(C(OC)(c4ccc(C(C)(C)C)cc4)c4ccc(C(C)(C)C)cc4)c(C)cc3C)c3cc(C(OC)(c4ccc(C(C)(C)C)cc4)c4ccc(C(C)(C)C)cc4)c(C)cc3C)c(C)cc2C)c(C)cc1C)(c1cc(C(OC)(c2ccc(C(C)(C)C)cc2)c2ccc(C(C)(C)C)cc2)c(C)cc1C)c1cc(C(OC)(c2ccc(C(C)(C)C)cc2)c2ccc(C(C)(C)C)cc2)c(C)cc1C"
Completion: -30.6

Prompt: Entry to check: "N#CCCN(CCC#N)c1ccc(/C=C2\N=C(c3cc([N+](=O)[O-])ccc3Cl)N(S(=O)(=O)c3ccccc3)C2=O)cc1"
Completion: -47.4

Prompt: Entry to check: CCOC(=O)OC1CC2CC(OC(=O)OCC)c3cccc(Br)c3C2c2ccccc21 (configuration not stated)
Completion: 0.05

Prompt: Entry to check: "O=S(=O)(Nc1nc2ccccc2nc1Nc1cccc2ccccc12)c1ccccc1"
Completion: -13.5

Prompt: Entry to check: "CCCCCCCSc1nc2ccc(N=Cc3ccccc3O)cc2s1"
Completion: -3.25

Prompt: Entry to check: O=[N+]([O-])c1cc2c(cc1Br)C1C(C3C2C2(Cl)C(Cl)=C(Cl)C3(Cl)C2(Cl)Cl)C2(Cl)C(Cl)=C(Cl)C1(Cl)C2(Cl)Cl (configuration not stated)
Completion: 11.8

###

# assay notes: NCI Yeast Anticancer Drug Screen. Data for the bub3 strain (AID 167)
# experimental parameters: S. cerevisiae bub3 mutant strain, at 50.0 µM, stronger effect = higher value
# Protocol: Growth inhibition of yeast strains with defined genetic alterations is measured as a screen for potential anti-cancer activity. Selected strains with alterations in DNA damage repair or cell cycle control were exposed to compounds and growth inhibition was measured relative to vehicle treated controls. The strain used in this assay is bub3
This is part of a sample that, as a whole, favours compounds with a hit. Of some 79,000 tested, about 15% had one in any assay.
reported metric: growth inhibition (%)
Number in %, nothing else.

O=C1C2CCCCC2C(=O)N1O (stereo not given) ... 1.45
C=CCNC(=O)C1C2C=CC(C2)C1C(=O)NCC=C (stereo not given) ... -7.95
CN(C)c1ncnc2ncn(C3OC(CO)C(O)C3O)c12 (stereo not given) ... -13.2
CCCCCCCC(CCCCCCC)(C(=O)OCC)C(=O)OCC ... 0.25

Consider the record given below.
Prompt: Bench note: what growth inhibition did O=C(Nc1nc2ncn(CC(COc3ccccc3)OC(=O)c3ccccc3)c2c(=O)[nH]1)c1ccccc1 (stereo not given) show?
Completion: 12.2
